Cited source: the supplement of paper PMC10567573

B1: RHOBTB3 (parent)
chain: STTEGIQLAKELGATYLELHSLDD

- Variants of: B1
- Experiment: protein stability index of a GFP-peptide fusion (GPS, HEK-293T) (PSI 1-6); higher = more stable;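 further: lentivirally expressed fusions sorted by FACS into six bins by GFP to DsRed ratio, PSI derived from sequencing read proportions per bin multiplied by bin number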
- Condition Info: c terminus: a fixed tail appended
Measure Name: protein stability index

>>> quantitative_readout("STTEGIQLAKEIGATYLELHSLDD")
3.92
>>> quantitative_readout("STTEGIQLAKELGATYLKLHSLDD")
3.2
>>> quantitative_readout("STTEGIQLAKELGATYLELHPLDD")
4.06
>>> quantitative_readout("STTEGIQLAKELGATILELHSLDD")
3.47
>>> quantitative_readout("STTEFIQLAKELGATYLELHSLDD")
2.25
>>> quantitative_readout("STTEGIQLAKELGATYSELHSLDD")
4.61
>>> quantitative_readout("STTEGIQLAKELGQTYLELHSLDD")
3.28
>>> quantitative_readout("STTEGIQLAKELGATYLHLHSLDD")
3.07
>>> quantitative_readout("STTRGIQLAKELGATYLELHSLDD")
3.42
>>> quantitative_readout("STTEGIQLAKELGATYLSLHSLDD")
3.86
>>> quantitative_readout("SWTEGIQLAKELGATYLELHSLDD")
1.58
>>> quantitative_readout("STTEEIQLAKELGATYLELHSLDD")
3.31
>>> quantitative_readout("STTEGIQLAKELGATYKELHSLDD")
4.83
>>> quantitative_readout("STTEGIQLAKELGATVLELHSLDD")
3.59
>>> quantitative_readout("STVEGIQLAKELGATYLELHSLDD")
3.19
>>> quantitative_readout("STREGIQLAKELGATYLELHSLDD")
3.03
>>> quantitative_readout("STTEGIQLAKELGATYLELDSLDD")
4.95
>>> quantitative_readout("STTLGIQLAKELGATYLELHSLDD")
1.83
>>> quantitative_readout("STTEGIQLAKELGATYYELHSLDD")
4.12
>>> quantitative_readout("STTEGIQLAKELGATSLELHSLDD")
4.84
>>> quantitative_readout("STTEGIQLSKELGATYLELHSLDD")
4.24
>>> quantitative_readout("STTEGIQLMKELGATYLELHSLDD")
1.74
